From: patent US20210388087A1

Reported values of fold change of affinity for individual entries
# Tested system: T1, Human CD137 ECD (human)
# T1 construct: entry includes C-terminal His-tag and biotin acceptor peptide; also called human CD137 extracellular domain; 4-1BB
# T1 sequence (chain, as listed by the source limits assumed): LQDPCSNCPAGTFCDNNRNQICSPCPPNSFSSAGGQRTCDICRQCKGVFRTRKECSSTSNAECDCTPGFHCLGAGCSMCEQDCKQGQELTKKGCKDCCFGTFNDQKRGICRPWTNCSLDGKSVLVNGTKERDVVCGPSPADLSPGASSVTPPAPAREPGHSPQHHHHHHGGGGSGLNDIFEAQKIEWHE
# Procedure details: Biacore SPR, vs parent H183/L072
Could you give me the number in fold? Just the number is fine.

>  <Binder>
H183/L072 VL F96M (antibody, name in Kabat numbering, V domains shown, Dual-Ig) VH: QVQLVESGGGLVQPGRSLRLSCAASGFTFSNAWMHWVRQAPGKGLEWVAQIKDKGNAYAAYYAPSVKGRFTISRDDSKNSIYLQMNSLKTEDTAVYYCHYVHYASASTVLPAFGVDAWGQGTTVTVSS VL: DIVMTQSPLSLPVTPGEPASISCQASQELVHMNRNTYLHWYQQKPGQAPRLLIYKVSNRFPGVPDRFSGSGSGTDFTLKISRVEAEDVGVYYCAQGTSVPMTFGQGTKLEIK

>  <fold change of affinity (fold)>
0

$$$$

Now, please, on to the next binder.
// recorded fold change of affinity for H183/L072 VL V51M (antibody, name in Kabat numbering, V domains shown, Dual-Ig) VH: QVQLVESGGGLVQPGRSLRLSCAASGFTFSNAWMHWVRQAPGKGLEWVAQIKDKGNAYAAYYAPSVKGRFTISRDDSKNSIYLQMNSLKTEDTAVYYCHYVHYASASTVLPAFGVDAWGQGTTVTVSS VL: DIVMTQSPLSLPVTPGEPASISCQASQELVHMNRNTYLHWYQQKPGQAPRLLIYKMSNRFPGVPDRFSGSGSGTDFTLKISRVEAEDVGVYYCAQGTSVPFTFGQGTKLEIK : 1
